TARGET OR SYSTEM: Recombinant human liver GK1 (GST-GK) (Homo sapiens)
Construct: made in house; host or cells: E. coli
Sequence (P35557 1-466 isoform P35557-2): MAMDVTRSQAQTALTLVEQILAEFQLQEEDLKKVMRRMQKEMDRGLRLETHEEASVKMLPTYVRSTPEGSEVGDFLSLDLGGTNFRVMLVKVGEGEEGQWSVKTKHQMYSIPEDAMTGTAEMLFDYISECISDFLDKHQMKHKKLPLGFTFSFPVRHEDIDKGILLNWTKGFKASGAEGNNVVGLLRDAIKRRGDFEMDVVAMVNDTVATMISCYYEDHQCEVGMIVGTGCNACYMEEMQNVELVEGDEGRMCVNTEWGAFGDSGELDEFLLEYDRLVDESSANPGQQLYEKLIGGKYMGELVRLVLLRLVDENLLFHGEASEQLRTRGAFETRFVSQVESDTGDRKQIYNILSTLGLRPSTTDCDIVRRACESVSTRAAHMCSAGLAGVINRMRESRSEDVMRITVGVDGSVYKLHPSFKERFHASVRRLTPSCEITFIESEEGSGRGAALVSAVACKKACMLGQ
PROTOCOL DESCRIPTION: Glucokinase in vitro assay (G6PDH-coupled, NADH generation, OD340)
Format: biochemical
CONDITIONS: 30° C., 5 mM D-glucose, 10% dimethylsulfoxide
REPORTED ENDPOINT: SC1.5 (concentration of activator that produced a 50% increase in the activity of GK) (µM)

In the examples that follow, each entry is paired with its recorded SC1.5 (concentration of activator that produced a 50% increase in the activity of GK).
- COMPOUND STRUCTURE STRING: "COCCn1ccc(NC(=O)[C@H](CC2CCCC2)N2Cc3c(cccc3C(F)(F)F)C2=O)n1"
  VALUE MEASURED: 0.328
- COMPOUND STRUCTURE STRING: "O=C(Nc1ccn(C[C@@H](O)CO)n1)[C@H](CC1CCCC1)N1Cc2c(cccc2C(F)(F)F)C1=O"
  VALUE MEASURED: 0.074
- COMPOUND STRUCTURE STRING: "O=C(Nc1ccn(C[C@H](O)CO)n1)[C@H](CC1CCCC1)N1Cc2c(cccc2C(F)(F)F)C1=O"
  VALUE MEASURED: 0.119
- COMPOUND STRUCTURE STRING: "O=C(Nc1cnc([C@H](O)CO)cn1)[C@H](CC1CCCC1)N1Cc2c(cccc2C(F)(F)F)C1=O"
  VALUE MEASURED: 0.255
- COMPOUND STRUCTURE STRING: "COC(C)(C)Cn1ccc(NC(=O)[C@H](CC2CC2)N2Cc3ccccc3C2=O)n1"
  VALUE MEASURED: 20.625

[1] CC(C)(C)OC(=O)CCn1ccc(NC(=O)[C@H](CC2CCCC2)N2Cc3c(cccc3C(F)(F)F)C2=O)n1
[2] COCCn1ccc(NC(=O)[C@H](CC2CCCCC2)N2Cc3ccccc3C2=O)n1
Sorting by SC1.5 (concentration of activator that produced a 50% increase in the activity of GK) in descending order, would 1 or 2 appear first? I would appreciate it if you answered with the label of your choice.
2
(2: 3.526 µM, 1: 0.334 µM)

----------
TARGET OR SYSTEM: Recombinant human liver GK1 (GST-GK) (Homo sapiens, UniProt P35557)
Construct: made in house; host or cells: E. coli
Sequence (P35557 1-466 isoform P35557-2): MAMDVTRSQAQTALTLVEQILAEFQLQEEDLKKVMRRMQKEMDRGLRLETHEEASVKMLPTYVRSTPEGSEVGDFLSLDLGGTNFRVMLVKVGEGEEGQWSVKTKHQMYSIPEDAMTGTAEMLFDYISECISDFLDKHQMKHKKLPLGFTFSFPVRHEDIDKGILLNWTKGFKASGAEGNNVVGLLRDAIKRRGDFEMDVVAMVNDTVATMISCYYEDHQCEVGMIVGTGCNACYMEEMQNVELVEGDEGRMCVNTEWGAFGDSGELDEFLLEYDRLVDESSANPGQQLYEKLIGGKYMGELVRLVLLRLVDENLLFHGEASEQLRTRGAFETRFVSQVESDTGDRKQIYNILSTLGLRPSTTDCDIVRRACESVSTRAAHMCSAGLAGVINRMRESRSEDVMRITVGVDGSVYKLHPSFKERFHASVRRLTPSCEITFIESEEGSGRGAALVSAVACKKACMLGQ
PROTOCOL DESCRIPTION: Glucokinase in vitro assay (G6PDH-coupled, NADH generation, OD340)
Assay type: biochemical
CONDITIONS: 30° C., 5 mM D-glucose, 10% dimethylsulfoxide
REPORTED ENDPOINT: SC1.5 (concentration of activator that produced a 50% increase in the activity of GK) (µM)

- COMPOUND: "O=C(O)Cn1ccc(NC(=O)[C@H](CC2CCCC2)N2Cc3c(cccc3C(F)(F)F)C2=O)n1 [Example 4]"
  DISPLAY UNIT: "µM"
  VALUE MEASURED: 0.439
- COMPOUND: "Cn1ccc(NC(=O)[C@H](CC2CCCC2)N2Cc3c(cccc3C(F)(F)F)C2=O)n1 [Example 1]"
  DISPLAY UNIT: "µM"
  VALUE MEASURED: 0.187

[1] O=C(Nc1cnccn1)[C@H](CC1CCCC1)N1Cc2c(cccc2C(F)(F)F)C1=O [Example 15]
[2] COCCn1ccc(NC(=O)[C@H](CC2CCCC2)N2Cc3ccccc3C2=O)n1 [Example 9]
Short answer wanted: higher SC1.5 (concentration of activator that produced a 50% increase in the activity of GK), 1 or 2 ? Reply briefly: the label of your chosen item.
2
(2: 1.6 µM, 1: 0.176 µM)
